assayed-target: Genome polyprotein (Hepatitis C virus genotype 1a (isolate 1) (HCV))
Sequence (P26664 2421-3011 limits assumed): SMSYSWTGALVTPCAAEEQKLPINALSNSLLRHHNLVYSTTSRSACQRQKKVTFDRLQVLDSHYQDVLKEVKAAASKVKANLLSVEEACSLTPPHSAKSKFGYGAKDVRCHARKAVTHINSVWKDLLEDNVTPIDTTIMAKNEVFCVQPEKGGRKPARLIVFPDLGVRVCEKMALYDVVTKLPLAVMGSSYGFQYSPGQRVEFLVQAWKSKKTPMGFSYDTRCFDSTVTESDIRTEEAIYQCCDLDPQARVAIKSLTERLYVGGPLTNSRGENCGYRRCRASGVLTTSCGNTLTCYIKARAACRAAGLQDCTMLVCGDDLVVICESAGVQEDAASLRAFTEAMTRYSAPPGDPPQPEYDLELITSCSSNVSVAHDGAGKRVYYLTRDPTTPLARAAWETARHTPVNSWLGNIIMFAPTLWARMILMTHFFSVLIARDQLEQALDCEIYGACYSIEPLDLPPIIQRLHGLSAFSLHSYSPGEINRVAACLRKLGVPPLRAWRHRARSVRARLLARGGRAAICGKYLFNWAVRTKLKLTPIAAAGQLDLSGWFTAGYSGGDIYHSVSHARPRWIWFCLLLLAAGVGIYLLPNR
assay-name: In vitro inhibition of Hepatitis C polymerase.
readout-name: pIC50
The quantity pIC50 is defined as the negative base-10 logarithm of the molar concentration.

Recorded results for 3 compounds are shown here.
Cc1ccccc1C(=O)N(C)c1cc(-c2ccccc2)sc1C(=O)O: 4.68
Cc1ccc(S(=O)(=O)N(C)c2cc(-c3ccccc3)sc2C(=O)O)c(C)c1: 5.30
CC(C)N(C(=O)c1ccc(Cl)cc1Cl)c1cc(-c2ccccc2)sc1C(=O)O: 5.92

Sure, the documented pIC50 for CCN(C(=O)c1ccc(C)cc1)c1cc(-c2ccccc2)sc1C(=O)O is 5.70

Sure, the documented pIC50 for CN(C(=O)c1ccc(C(F)(F)F)cc1)c1cc(-c2ccccc2)sc1C(=O)O is 4.47

Sure, the documented pIC50 for CC(C)N(C(=O)C1CCCCC1)c1cc(-c2ccccc2)sc1C(=O)O is 5.05

Sure, the documented pIC50 for CN(C(=O)c1ccc(Cl)cc1)c1cc(-c2ccccc2)sc1C(=O)O is 5.92

Sure, the documented pIC50 for Cc1ccc(C(=O)N(c2cc(-c3ccccc3)sc2C(=O)O)C(C)C)cc1 is 5.52

Sure, the documented pIC50 for CC1CCC(C(=O)N(c2cc(-c3ccccc3)sc2C(=O)O)C(C)C)CC1 (stereo in doubt; 16) is 5.82

Sure, the documented pIC50 for Cc1ccc(C(=O)N(C)c2cc(-c3ccccc3)sc2C(=O)O)cc1 is 5.70

Sure, the documented pIC50 for CC1CCC(C(=O)N(c2cc(-c3ccccc3)sc2C(=O)O)C(C)C)CC1 (stereo in doubt; 17) is 4.62

Sure, the documented pIC50 for Cc1ccc(C(=O)N(C)c2cc(-c3ccccc3)sc2C(=O)O)c(C)c1 is 5.85

----------
assayed-target: Genome polyprotein (Hepatitis C virus genotype 1a (isolate 1) (HCV))
assay-name: In vitro inhibition of Hepatitis C polymerase.
readout-name: IC50

Recorded results for 3 compounds are shown here.
Cc1cccc(C(=O)N(C)c2cc(-c3ccccc3)sc2C(=O)O)c1: > 50 µM
CCc1ccc(C(=O)N(C)c2cc(-c3ccccc3)sc2C(=O)O)cc1: > 50 µM
CN(C(=O)c1ccccc1)c1cc(-c2ccccc2)sc1C(=O)O: > 32 µM

Read the next record carefully.
Sure, the documented IC50 for Cc1ccc(C(=O)N(C)c2cc(-c3ccccc3)sc2C(=O)O)cc1C is > 50 µM
